Target: T1, mouse B7-H4 (mouse, UniProt Q7TSP5 29-283)
T1 construct: On stably transfected 293 cells; also called muB7-H4; recombinant mouse B7-H4
T1 sequence: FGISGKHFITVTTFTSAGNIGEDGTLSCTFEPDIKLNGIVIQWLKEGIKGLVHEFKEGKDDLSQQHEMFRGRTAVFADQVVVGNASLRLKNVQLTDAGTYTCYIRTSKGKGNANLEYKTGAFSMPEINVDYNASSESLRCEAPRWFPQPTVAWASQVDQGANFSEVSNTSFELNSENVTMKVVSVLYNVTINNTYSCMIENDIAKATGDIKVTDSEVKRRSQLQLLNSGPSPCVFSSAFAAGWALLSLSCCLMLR
Experiment notes: FACS titration on 293 cells expressing recombinant mouse B7-H4 (panel '293-mouse B7-H4', lower block), geometric mean fluorescence
Give EC50 for every item shown.
Give bare numbers, in µg/mL.

INSERT INTO measurements (binder, observed_property, measured_result) VALUES
  ('humanized 1D11.v1.8 (antibody, V domains shown, also called hu1D11.v1.8; h1D11.v1.8) VH: EVQLVQSGAEVKKPGASVKVSCKASGYTFTSYWIGWVRQAPGQGLEWIGDIYPGGGYTNYNEKFKGRATITRDTSTSTAYLELSSLRSEDTAVYYCARLDGSSYRGAMDSWGQGTLVTVSS VL: DIQMTQSPSSLSASVGDRVTITCKASQGFNKYVAWYQQKPGKAPKLLIYYTSTLQPGVPSRFSGSGSGRDYTLTISSLQPEDFATYYCLQYGNLLYAFGQGTKVEIKR', 'EC50', 1.32),
  ('chimeric antibody ch1D11 (antibody, human IgG1, V domains shown, also called parental 1D11 antibody; antibody 1D11) VH: QVQLQQSGAELVRPGTSVKMSCKASGYTFTSYWIGWAKQRPGHGFEWIGDIYPGGGYTNYNEKFKGKATLTADKSSSTAYMQFSSLTSEDSAIYYCARLDGSSYRGAMDSWGQGTSITVSS VL: DIQMTQSPSSLSASLGGKVTITCKASQGFNKYVAWYQHKPGQCPRLLIHYTSTLQPGIPARFSGSGSGRDYSFSISNLEPEDSATYFCLQYGNLLYAFGGGTKLEIKR', 'EC50', 0.38),
  ('humanized 1D11.v1.7 (antibody, V domains shown, also called hu1D11.v1.7; h1D11.v1.7) VH: EVQLVQSGAEVKKPGASVKVSCKASGYTFTSYWIGWVRQAPGQGLEWIGDIYPGGGYTNYNEKFKGRATLTRDTSTSTAYLELSSLRSEDTAVYYCARLDGSSYRGAMDSWGQGTLVTVSS VL: DIQMTQSPSSLSASVGDRVTITCKASQGFNKYVAWYQQKPGKAPKLLIYYTSTLQPGVPSRFSGSGSGRDYTLTISSLQPEDFATYYCLQYGNLLYAFGQGTKVEIKR', 'EC50', 0.45);

Now look at this entry.
Fill in reported EC50 for this entry: humanized 1D11.v1.9 (antibody, V domains shown, also called hu1D11.v1.9; h1D11.v1.9) VH: EVQLVQSGAEVKKPGASVKVSCKASGYTFTSYWIGWVRQAPGQGLEWIGDIYPGGGYTNYNEKFKGRVTITRDTSTSTAYLELSSLRSEDTAVYYCARLDGSSYRGAMDSWGQGTLVTVSS VL: DIQMTQSPSSLSASVGDRVTITCKASQGFNKYVAWYQQKPGKAPKLLIYYTSTLQPGVPSRFSGSGSGRDYTLTISSLQPEDFATYYCLQYGNLLYAFGQGTKVEIKR
0.36
